- Target Entity: Dedicator of cytokinesis protein 2 (Homo sapiens)
- Sequence (Q92608 whole entry, the tested form may be a part): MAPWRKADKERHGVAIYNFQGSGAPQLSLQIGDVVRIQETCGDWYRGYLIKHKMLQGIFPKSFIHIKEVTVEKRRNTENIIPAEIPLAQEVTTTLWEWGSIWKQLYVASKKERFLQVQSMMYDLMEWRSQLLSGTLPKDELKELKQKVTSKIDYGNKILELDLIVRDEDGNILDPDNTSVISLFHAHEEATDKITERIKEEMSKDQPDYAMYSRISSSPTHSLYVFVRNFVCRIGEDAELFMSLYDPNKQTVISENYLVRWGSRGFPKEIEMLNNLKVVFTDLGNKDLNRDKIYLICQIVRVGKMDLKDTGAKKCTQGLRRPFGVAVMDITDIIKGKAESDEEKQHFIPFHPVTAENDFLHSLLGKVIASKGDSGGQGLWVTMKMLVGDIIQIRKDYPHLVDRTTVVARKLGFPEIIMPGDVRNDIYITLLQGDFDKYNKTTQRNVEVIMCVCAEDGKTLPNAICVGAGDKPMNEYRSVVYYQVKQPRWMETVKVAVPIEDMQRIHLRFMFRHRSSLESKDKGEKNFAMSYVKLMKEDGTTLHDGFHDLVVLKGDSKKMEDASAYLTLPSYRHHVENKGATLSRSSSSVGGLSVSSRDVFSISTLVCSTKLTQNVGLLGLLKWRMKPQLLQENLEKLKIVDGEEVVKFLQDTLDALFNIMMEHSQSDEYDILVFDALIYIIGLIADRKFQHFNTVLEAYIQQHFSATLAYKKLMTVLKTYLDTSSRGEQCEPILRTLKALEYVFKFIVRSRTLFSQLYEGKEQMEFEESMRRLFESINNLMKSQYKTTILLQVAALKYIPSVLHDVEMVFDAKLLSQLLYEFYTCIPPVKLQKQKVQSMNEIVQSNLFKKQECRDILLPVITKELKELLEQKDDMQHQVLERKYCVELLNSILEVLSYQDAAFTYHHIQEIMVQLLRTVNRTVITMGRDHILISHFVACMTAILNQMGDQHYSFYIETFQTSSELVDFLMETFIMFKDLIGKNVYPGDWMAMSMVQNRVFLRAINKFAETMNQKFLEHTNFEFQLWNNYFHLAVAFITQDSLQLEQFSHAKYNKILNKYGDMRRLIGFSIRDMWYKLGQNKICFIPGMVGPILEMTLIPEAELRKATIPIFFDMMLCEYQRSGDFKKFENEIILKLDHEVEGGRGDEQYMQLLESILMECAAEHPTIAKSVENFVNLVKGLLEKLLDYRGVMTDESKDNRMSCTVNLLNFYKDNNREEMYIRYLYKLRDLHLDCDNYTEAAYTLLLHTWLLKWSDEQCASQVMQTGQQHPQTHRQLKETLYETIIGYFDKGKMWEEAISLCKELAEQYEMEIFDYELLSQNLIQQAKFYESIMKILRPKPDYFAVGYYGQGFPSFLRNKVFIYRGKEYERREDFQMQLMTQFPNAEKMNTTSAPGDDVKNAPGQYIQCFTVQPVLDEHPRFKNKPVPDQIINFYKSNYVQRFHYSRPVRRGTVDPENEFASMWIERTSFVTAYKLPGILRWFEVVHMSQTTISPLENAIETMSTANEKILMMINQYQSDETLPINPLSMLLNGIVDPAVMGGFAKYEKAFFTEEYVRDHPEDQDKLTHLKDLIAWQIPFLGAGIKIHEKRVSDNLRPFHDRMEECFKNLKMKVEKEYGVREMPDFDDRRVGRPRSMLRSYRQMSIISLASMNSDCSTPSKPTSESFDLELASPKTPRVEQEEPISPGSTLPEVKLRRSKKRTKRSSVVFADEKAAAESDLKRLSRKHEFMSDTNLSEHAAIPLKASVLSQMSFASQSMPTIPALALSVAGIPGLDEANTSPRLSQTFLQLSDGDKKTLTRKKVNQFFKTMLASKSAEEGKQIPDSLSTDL
- Protocol Text: Inhibition of GST-fused Rac1 (unknown origin) binding to recombinant N-terminal trigger factor/C-terminal SBP-tagged DOCK2 DHR-2 binding domain (unknown origin) expressed in mammalian cells assessed as reduction in Rac GEF activity pretreated for 1 hr followed by GST-fused Rac1 addition after 1 hr by ELISA
- Format: cell-based
Observation Type: IC50

Problem: Please state recorded IC50 (tested on Dedicator of cytokinesis protein 2 (Homo sapiens)) of O=C1NN(c2ccccc2)C(=O)/C1=C/C=C/c1ccccc1Cl
Result: 22.8 µM

###

- Protocol Text: in vitro
- Condition Info: human, HEK293T cells
- Description: Cytotoxicity against HEK293T cells assessed as cell viability at 12.5 uM by CellTiter-Glo assay relative to control
Positions of bridges follow the written chain, without caps; N, C: chain ends. Residues, ends and D or L forms follow the SMILES beside them. *: point of attachment. X2 = CC(=O)[C@H]1CSC(c2nc3ccc(OC(=O)OCCCS*)cc3s2)=N1
Observation Type: viability at 12.5 µM (%)
Record the value in %, omitting the unit from your answer.

Problem: Entry CC(=O)N[C@@H](CSSCCCOC(=O)Oc1ccc2nc(C3=N[C@@H](C(C)=O)CS3)sc2c1)C(=O)N[C@H]1CSSC[C@@H](C(=O)N[C@@H](CCCNC(=N)N)C(=O)N[C@@H](CCCNC(=N)N)C(=O)N[C@@H](CCCNC(=N)N)C(N)=O)NC(=O)[C@H](Cc2c[nH]c3ccccc23)NC(=O)[C@@H]2CCCN2C(=O)[C@H](Cc2ccc(O)cc2)NC(=O)CNC(=O)[C@H](Cc2cnc[nH]2)NC(=O)[C@H](Cc2ccc(O)cc2)NC(=O)[C@H](CCCCN)NC(=O)[C@H](C)NC(=O)[C@H](C(C)C)NC1=O (Ac-C(X2)CVAKYHGYPWCRRR-NH2; disulfide 2-12) has what viability at 12.5 µM?
Result: 112

Data provenance: ChEMBL document CHEMBL4049405
